- target-or-test-system: T1, hu IGF-1R(ECD)-C3-muIgG1Fc (human; mouse, Glycosylated. 60% of the preparation was cleaved between the alpha and beta chains (RKRR, mature positions 708-711), which stay disulfide-linked; 40% was unprocessed. Dimer through the …)
- T1 construct: 60% of the product was processed into α and β chains, 40% unprocessed; also called IGF-1R(ECD)-C3-muFc; IGF-1R-C3-muFc
- test-protocol: phage Fab ELISA, plate coated with IGF-1R-C3-mFc at 5 µg/ml
measurement-name: binding result

L49H49 phage-displayed Fab (Fab, V domains shown) VH: QVQLQQWGAGLLKPSETLSLTCAVYGGSFSGYYWSWIRQPPGKGLEWIGEINHSGSTNYNPSLKSRVTISVDTSKNQFSLKLSSVTAADTAVYYCARVGYSHGEEVLDVWGKGTTVTVSS VL: NFMLTQPHSVSESPGKTVSISCTRNSGSIASNFVQWYQQRPGSAPTIVIYEDNQRPSAVPTRFSGSIDRSSNSASLTISGLTTEDEADYYCQSYDSANVIFGGGTKLTVL : binds
L36H36 phage-displayed Fab (Fab, V domains shown) VH: QVQLQQWGAGLLKPSETLSLTCAVYGGSFSGYYWSWIRQPPGKGLEWIGEINHSGSTNYNPSLKSRVTISVDTSKNQFSLKLSSVTAADTAVYYCARVGYSSGRDVDYWGQGTLVTVSS VL: NFMLTQPHSVSESPGKTVTISCTRSSGSIASNYVQWYQQRPGSSPTTVIYEDNQRPSGVPDRFSGSIDSSSNSASLTISGLKTEDEADYYCQSYDSSNVVFGGGTKLTVL : binds
L28H28 phage-displayed Fab (Fab, V domains shown) VH: QVQLQESGPGLVKPSETLSLTCTVSGGSIRNYYWSWIRQPPGKGLEWIGYISDSGNTNYNPSLKSRVTISVDTSKNQFSLKLTSVTATDTAAYFCARHRSSWAWYFDLWGRGTLVTVSS VL: SYVLTQPPSVSVSPGQTASITCSGDKLGDKYVGWYQQKAGQAPVLVIYQDNKRPSGIPERFSGSNSGNTASLTISGTQAMDEADYYCQAWDSGTVFGGGTKLTVL : binds
